Data credit: paper doi:10.1101/2022.04.18.488652

Measured stoichiometry N of individual entries
- target_under_test: the molecule itself
- method: SEC

protein: NaKΔ18 (domain or fragment, B. cereus) WKDKEFQVLFVLTILTLISGTIFYSTVEGLRPIDALYFSVVTLTTVGDGNFSPQTDFGKIFTILYIFIGIGLVFGFIHKLAVNVQLPSILSNRKKE
stoichiometry N: 4

protein: NaKΔ18 L61A (domain or fragment, B. cereus, UniProt Q81HW2 19-114, looked up) WKDKEFQVLFVLTILTLISGTIFYSTVEGLRPIDALYFSVVTATTVGDGNFSPQTDFGKIFTILYIFIGIGLVFGFIHKLAVNVQLPSILSNRKKE
stoichiometry N: 4

protein: NaKΔ18 L35A (domain or fragment, B. cereus, UniProt Q81HW2 19-114, looked up) WKDKEFQVLFVLTILTAISGTIFYSTVEGLRPIDALYFSVVTLTTVGDGNFSPQTDFGKIFTILYIFIGIGLVFGFIHKLAVNVQLPSILSNRKKE
stoichiometry N: 4
